Listed here are binders together with their documented koff.
target: T1, human CD277 (human, UniProt O00481 30-254, limits assumed); experiment: SPRi (Carterra MX96), antibody printed on chip, his-tagged antigen injected, 1:1 fit
T1 construct: The SPR method text speaks of 'purified recombinant his tagged human CD137', apparently an error for CD277; also called BTN3A1; human CD277 polypeptides
T1 sequence (O00481 30-254 limits assumed): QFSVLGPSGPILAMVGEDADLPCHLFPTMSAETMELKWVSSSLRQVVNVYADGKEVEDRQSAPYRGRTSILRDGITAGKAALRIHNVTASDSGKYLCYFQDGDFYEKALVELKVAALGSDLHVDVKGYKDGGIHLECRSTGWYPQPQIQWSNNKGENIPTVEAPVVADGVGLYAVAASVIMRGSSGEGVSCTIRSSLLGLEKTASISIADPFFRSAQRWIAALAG
measured endpoint: koff (s⁻¹)

| binder | measured endpoint | value unit | reported |
| --- | --- | --- | --- |
| anti-CD277 antibody mAb4 (antibody, human IgG1, kappa, N297A, V domains shown) VH: QVQLVQSGAEVKKPGASVKVSCKASGYTFTNYYMHWVRQAPGQGLEWMGWINVNSGVTKYAQKFQGRVTMTRDTSISTAYMELSRLRSDDTAVYYCARRHSDMIGYYYGMDVWGQGTTVTVSS VL: DIQMTQSPSSVSASVGDRVTITCRASQGISSWLAWYQQKPGKAPKLLIYAASSLQSGVPSRFSGSGSGTDFTLTISSLQPEDFATYYCQQATDFPPTFGGGTKVEIKR | koff | s⁻¹ | 0.00019 |
| anti-CD277 antibody mAb5 (antibody, human IgG1, kappa, N297A, V domains shown) VH: QVQLVQSGAEVKKPGASVKVSCKASGYTFSNYYIHWVRQAPGQGLEWMGWINANSGGTKYAQKFQGRVTMTRDTSISTAYMELSRLRSDDTAVYYCARRHSDMIGYYYGMDVWGQGTTVTVSS VL: DIQMTQSPSSVSASVGDRVTITCRASQGISSWLAWYQQKPGKAPKLLIYAASSLQSGVPSRFSGSGSGTDFTLTISSLQPEDFATYYCQQATDFPPTFGGGTKVEIKR | koff | s⁻¹ | 0.00025 |
| anti-CD277 antibody mAb3 (antibody, human IgG1, kappa, N297A, V domains shown) VH: QVQLVQSGAEVKKPGASVKVSCKASGYTFNGYYIHWVRQAPGQGLEWMGWINSNSGGTKYAQKFQGRVTMTRDTSISTAYMELSRLRSDDTAVYYCARRHSDMIGYYYGMDVWGQGTTVTVSS VL: DIQMTQSPSSVSASVGDRVTITCRASQGISSWLAWYQQKPGKAPKLLIYAASSLQSGVPSRFSGSGSGTDFTLTISSLQPEDFATYYCQQATDFPPTFGGGTKVEIKR | koff | s⁻¹ | 0.000121 |
